Hi there, I'd appreciate the recorded MC4R selectivity vs MC1R for every entry that follows.
Target: human MC4R receptor (human, UniProt P32245 1-332)
Sequence (P32245 whole entry): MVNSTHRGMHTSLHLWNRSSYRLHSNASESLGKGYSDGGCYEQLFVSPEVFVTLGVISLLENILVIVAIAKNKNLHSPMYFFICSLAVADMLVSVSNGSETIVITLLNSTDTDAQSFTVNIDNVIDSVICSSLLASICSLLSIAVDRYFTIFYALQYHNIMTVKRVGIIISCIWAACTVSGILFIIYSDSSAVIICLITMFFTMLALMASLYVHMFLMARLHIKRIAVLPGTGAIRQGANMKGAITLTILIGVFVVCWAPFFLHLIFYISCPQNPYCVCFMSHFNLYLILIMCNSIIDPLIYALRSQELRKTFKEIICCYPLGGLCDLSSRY
Test: cell-based or functional assay
Positions of bridges follow the written chain, without caps; N, C: chain ends. Non-standard residues stand in square brackets, D forms with d. Phe(4-Br) = N[C@@H](Cc1ccc(Br)cc1)C(=O)O; dPhe(4-Br) = N[C@H](Cc1ccc(Br)cc1)C(=O)O; d(αMeF) = C[C@@](N)(Cc1ccccc1)C(=O)O; R2 = not defined here
Lab note: jot down the number only; don't add units.

Exercise: Check the records and state MC4R selectivity vs MC1R for R2-RC[dA]R[dPhe(4-Br)]R[dW]C-NH2 (disulfide 2-8; reading uncertain; also: printed as N-term. Mod. R2; Arg-cyclo(Cys-D-Ala-Arg-D-Phe(4-Br)-Arg-D-Trp-Cys)-NH2) [CTX-1226]
Solution: 1.33

Exercise: Give the reported value of MC4R selectivity vs MC1R for this record: Ac-RC[dA]R[d(αMeF)]R[dW]C-NH2 (disulfide 2-8; SMILES CC(=O)N[C@@H](CCCNC(=N)N)C(=O)N[C@H]1CSSC[C@@H](C(N)=O)NC(=O)[C@@H](Cc2c[nH]c3ccccc23)NC(=O)[C@H](CCCNC(=N)N)NC(=O)[C@@](C)(Cc2ccccc2)NC(=O)[C@H](CCCNC(=N)N)NC(=O)[C@@H](C)NC1=O) [CTX-1240]
Solution: 0.46

Exercise: Find the measured MC4R selectivity vs MC1R of Ac-RC[dA]R[Phe(4-Br)]R[dW]C-NH2 (disulfide 2-8) [CTX-1215] and report it.
Solution: 0.07

Exercise: Specify measured MC4R selectivity vs MC1R for Ac-RC[dA]R[d(αMeF)]R[dW]C-NH2 (disulfide 2-8; SMILES CC(=O)N[C@@H](CCCNC(=N)N)C(=O)N[C@H]1CSSC[C@@H](C(N)=O)NC(=O)[C@@H](Cc2c[nH]c3ccccc23)NC(=O)[C@H](CCCNC(=N)N)NC(=O)[C@@](C)(Cc2ccccc2)NC(=O)[C@H](CCCNC(=N)N)NC(=O)[C@@H](C)NC1=O) [CTX-1279] .
Solution: 0.83
